- measured_target: Cyclin-dependent kinase 4 (Homo sapiens, UniProt P11802)
- Sequence (P11802 whole entry): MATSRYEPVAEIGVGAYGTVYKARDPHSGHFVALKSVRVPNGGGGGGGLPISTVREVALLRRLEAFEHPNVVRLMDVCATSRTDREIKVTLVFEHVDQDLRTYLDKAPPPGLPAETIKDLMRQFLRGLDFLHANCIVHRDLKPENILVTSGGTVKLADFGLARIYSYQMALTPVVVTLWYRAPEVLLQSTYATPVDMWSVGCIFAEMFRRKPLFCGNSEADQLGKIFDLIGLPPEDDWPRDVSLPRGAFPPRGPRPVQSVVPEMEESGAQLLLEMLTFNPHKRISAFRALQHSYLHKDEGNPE
- test_description: Inhibition of retinoblastoma phosphorylation by CDK4
- Format: functional
IC50 class ranges: low band (below 300 nM), middle band (300 nM to below 1000 nM), high band (1000 nM or more)

INSERT INTO results (compound, group_label) VALUES
  ('CN1CCN(c2ccc(Nc3ncc4ccn(C5Cc6ccccc6C5)c4n3)cc2)CC1', 'high band'),
  ('CN1CCN(c2ccc(Nc3ncc4ccn(-c5cccc(S(C)(=O)=O)c5)c4n3)cc2)CC1', 'high band'),
  ('COCCN1CCN(c2ccc(Nc3ncc4ccn(C5CCCCC5)c4n3)cc2)CC1', 'low band'),
  ('COc1cccc(-n2ccc3cnc(Nc4ccc(N5CCN(C)CC5)cc4)nc32)c1', 'middle band'),
  ('CN1CCN(c2ccc(Nc3ncc4ccn(C5CC6CCC5C6)c4n3)cc2)CC1 (stereo not given)', 'low band'),
  ('c1cc(N2CCOCC2)ccc1Nc1ncc2ccn(C3CCCCC3)c2n1', 'middle band'),
  ('CN1CCN(c2ccc(Nc3ncc4ccn(-c5cccnc5)c4n3)cc2)CC1', 'high band'),
  ('O=C(O)Cc1cccc(Nc2ncc3ccn(C4CCCCC4)c3n2)c1', 'middle band'),
  ('CN1CCN(c2ccc(Nc3ncc4ccn(C5CCCCC5)c4n3)cc2)CC1', 'low band');

----------
- measured_target: Platelet-derived growth factor receptor (Homo sapiens, UniProt P09619+P16234)
- test_description: Inhibition of PDGFR
reported_metric: IC50 (nM)

INSERT INTO results (compound_smiles, recorded_value) VALUES
  ('CN1CCN(c2ccc(Nc3ncc4ccn(C5CCCCC5)c4n3)cc2)CC1', 290);

----------
- measured_target: Cyclin-dependent kinase 4 (Homo sapiens)
- test_description: Inhibition of CDK4
pIC50: −log10 of the molar value.
reported_metric: pIC50

INSERT INTO results (compound_smiles, reported_metric, recorded_value) VALUES
  ('CN1CCN(c2ccc(Nc3ncc4ccn(C5CCCCC5)c4n3)cc2)CC1', 'pIC50', 7.51);

----------
- measured_target: Cyclin-dependent kinase 7 (Homo sapiens)
- Sequence (P50613 whole entry): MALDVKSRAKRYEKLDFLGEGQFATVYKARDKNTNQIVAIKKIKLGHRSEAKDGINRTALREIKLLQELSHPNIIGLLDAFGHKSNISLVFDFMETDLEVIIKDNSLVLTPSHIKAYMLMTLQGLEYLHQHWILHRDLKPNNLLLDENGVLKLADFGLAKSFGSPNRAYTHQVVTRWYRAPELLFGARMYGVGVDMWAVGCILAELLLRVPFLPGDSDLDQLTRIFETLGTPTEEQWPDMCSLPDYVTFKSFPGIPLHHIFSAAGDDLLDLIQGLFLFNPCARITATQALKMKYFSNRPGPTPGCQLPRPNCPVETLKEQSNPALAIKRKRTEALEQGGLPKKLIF
reported_metric: IC50 (nM)

INSERT INTO measurements (compound_smiles, scale_unit, recorded_value) VALUES
  ('CN1CCN(c2ccc(Nc3ncc4ccn(C5CCCCC5)c4n3)cc2)CC1', 'nM', 1500);
